# tested_on: JAK2 (Homo sapiens)
# Construct: purchased Life Technologies PV4210
# Sequence (O60674 whole entry): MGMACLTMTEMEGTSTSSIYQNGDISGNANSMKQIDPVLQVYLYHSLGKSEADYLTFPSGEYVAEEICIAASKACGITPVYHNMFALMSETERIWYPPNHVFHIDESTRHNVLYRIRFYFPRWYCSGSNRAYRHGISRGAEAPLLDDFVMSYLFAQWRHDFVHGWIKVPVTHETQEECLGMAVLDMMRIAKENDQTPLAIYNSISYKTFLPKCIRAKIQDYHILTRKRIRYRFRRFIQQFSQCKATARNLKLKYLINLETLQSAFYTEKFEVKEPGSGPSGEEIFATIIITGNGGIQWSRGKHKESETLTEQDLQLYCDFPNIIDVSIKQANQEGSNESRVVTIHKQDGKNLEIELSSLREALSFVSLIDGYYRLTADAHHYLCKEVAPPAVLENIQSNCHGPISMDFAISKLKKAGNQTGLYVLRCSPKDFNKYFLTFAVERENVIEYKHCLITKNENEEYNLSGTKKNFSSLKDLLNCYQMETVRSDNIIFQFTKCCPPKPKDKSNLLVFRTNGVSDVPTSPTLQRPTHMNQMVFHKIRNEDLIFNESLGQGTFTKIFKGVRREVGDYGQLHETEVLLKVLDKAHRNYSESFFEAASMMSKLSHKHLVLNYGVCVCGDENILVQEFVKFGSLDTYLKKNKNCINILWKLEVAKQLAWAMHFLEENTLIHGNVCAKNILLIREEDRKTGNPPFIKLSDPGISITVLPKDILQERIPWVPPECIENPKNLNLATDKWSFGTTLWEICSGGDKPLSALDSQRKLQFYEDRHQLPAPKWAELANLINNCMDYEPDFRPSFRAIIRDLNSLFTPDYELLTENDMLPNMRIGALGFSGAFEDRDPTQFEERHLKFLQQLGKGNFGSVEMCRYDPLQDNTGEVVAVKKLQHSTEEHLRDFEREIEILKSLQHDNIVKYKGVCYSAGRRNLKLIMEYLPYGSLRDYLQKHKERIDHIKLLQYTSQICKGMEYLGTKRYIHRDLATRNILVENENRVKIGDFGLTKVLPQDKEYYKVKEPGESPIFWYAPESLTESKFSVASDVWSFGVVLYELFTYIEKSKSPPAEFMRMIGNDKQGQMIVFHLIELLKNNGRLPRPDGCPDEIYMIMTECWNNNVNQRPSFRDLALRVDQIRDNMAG
# test_details: LanthaScreen TR-FRET binding test, JAK2
# test_settings: recombinant JAK2 15 nM, kinase tracer 236 150 nM, 25° C., 1 hour; read-out: Inhibition (IC50) of JAK2 enzyme
pIC50: −log10 of the molar value.
attribute_measured: pIC50

I = CN1CCN(c2ccc3cc2OCCOCCOc2ccc4c(c2)-c2nc(ncc2CC4)N3)CC1 [Compound 3]
II = CN1CCN(c2ccc3cc2OCCOCCOc2ccc4c(c2)-c2nc(ncc2CC4)N3)CC1(C)C [Compound 40]
Prompt: From the recorded data, which exceeds the other in pIC50: I or II ? State your choice using its label.
Completion: II

----------
# tested_on: FLT3 (Homo sapiens)
# Sequence (P36888 564-993 limits assumed): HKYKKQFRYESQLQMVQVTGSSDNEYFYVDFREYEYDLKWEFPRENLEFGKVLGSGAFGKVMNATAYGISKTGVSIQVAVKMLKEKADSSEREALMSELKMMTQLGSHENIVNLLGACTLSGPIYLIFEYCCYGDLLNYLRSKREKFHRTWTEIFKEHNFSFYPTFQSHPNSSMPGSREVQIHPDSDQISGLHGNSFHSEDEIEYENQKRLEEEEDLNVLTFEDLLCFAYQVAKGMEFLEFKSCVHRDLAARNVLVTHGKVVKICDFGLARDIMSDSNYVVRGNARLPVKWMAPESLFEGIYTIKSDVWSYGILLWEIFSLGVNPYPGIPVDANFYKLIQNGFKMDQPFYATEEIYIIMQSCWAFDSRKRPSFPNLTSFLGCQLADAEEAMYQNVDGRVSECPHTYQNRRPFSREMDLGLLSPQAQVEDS
# test_details: LanthaScreen TR-FRET binding test, FLT3
# test_settings: recombinant FLT3 15 nM, kinase tracer 236 3 nM, 25° C., 1 hour; read-out: Inhibition (IC50) of FLT3 enzyme
attribute_measured: IC50 (nM)

Example cases with answers are listed next.
{"columns": ["molecule", "attribute_measured", "observed_value"],
 "data": [
  ["c1cc(N2CC3CCC(C2)N3)c2cc1Nc1ncc3c(n1)-c1cc(ccc1CC3)OCCOCCO2", "IC50", 3.2],
  ["CN1CC=C(c2ccc3cc2OCCOCCOc2ccc4c(c2)-c2nc(ncc2CC4)N3)CC1", "IC50", 4.5]
]}

I = c1cc(N2CC3CNCC3C2)c2cc1Nc1ncc3c(n1)-c1cc(ccc1CC3)OCCOCCO2 (stereo not shown)
II = c1cc(OCCN2CCCC2)c2cc1Nc1ncc3c(n1)-c1cc(ccc1CC3)OCCOCCO2
Prompt: Among I and II , whose measured IC50 is the smaller figure? State your choice using its label.
Completion: I
(I: 3.7 nM, II: 7 nM)

----------
# tested_on: FLT3 (Homo sapiens)
# test_details: LanthaScreen TR-FRET binding test, FLT3
# test_settings: recombinant FLT3 15 nM, kinase tracer 236 3 nM, 25° C., 1 hour; read-out: Inhibition (IC50) of FLT3 enzyme
pIC50: −log10 of the molar value.
attribute_measured: pIC50

{"columns": ["compound", "pIC50"],
 "data": [
  ["OC1CCN(c2ccc3cc2OCCOCCOc2ccc4c(c2)-c2nc(ncc2CC4)N3)CC1", 8.44],
  ["CN(C)C1CCN(c2ccc3cc2OCCOCCOc2ccc4c(c2)-c2nc(ncc2CC4)N3)C1 (stereo not shown)", 8.49],
  ["CN1CCN(c2ccc3cc2OCCOCCOc2ccc4c(c2)-c2nc(ncc2CC4)N3)CC1(C)C", 8.72],
  ["CN1CCN(c2ccc3cc2OCCOCCOc2ccc4c(c2)-c2nc(ncc2CC4)N3)CC1", 8.60]
]}

----------
# tested_on: UniProt:O60674
# test_details: LanthaScreen TR-FRET binding test, JAK2
# test_settings: recombinant JAK2 15 nM, kinase tracer 236 150 nM, 25° C., 1 hour; read-out: Inhibition (IC50) of JAK2 enzyme
attribute_measured: IC50 (nM)

Example cases with answers are listed next.
{"columns": ["compound", "IC50 / nM"],
 "data": [
  ["CN(C)C1CCN(c2ccc3cc2OCCOCCOc2ccc4c(c2)-c2nc(ncc2CC4)N3)C1 (centres unmarked)", 10],
  ["c1cc(N2C[C@H]3C[C@@H]2CN3)c2cc1Nc1ncc3c(n1)-c1cc(ccc1CC3)OCCOCCO2", 33.5],
  ["c1cc(OCCN2CCCC2)c2cc1Nc1ncc3c(n1)-c1cc(ccc1CC3)OCCOCCO2", 34],
  ["c1cc(N2CC3CCC(C2)N3)c2cc1Nc1ncc3c(n1)-c1cc(ccc1CC3)OCCOCCO2", 6.7]
]}

P = CN1CC=C(c2ccc3cc2OCCOCCOc2ccc4c(c2)-c2nc(ncc2CC4)N3)CC1
Q = c1cc(N2CCC(N3CCCCC3)CC2)c2cc1Nc1ncc3c(n1)-c1cc(ccc1CC3)OCCOCCO2
R = c1cc(N2CCC(N3CCOCC3)C2)c2cc1Nc1ncc3c(n1)-c1cc(ccc1CC3)OCCOCCO2 (centres unmarked)
S = OC1CCN(c2ccc3cc2OCCOCCOc2ccc4c(c2)-c2nc(ncc2CC4)N3)CC1
Prompt: Put the entries in order of IC50, starting with the largest number. Write out the labels following the order that was asked for.
Completion: P, R, S, Q
